# System: KM-20L2
# procedure.details: NCI tumour cell line growth inhibition, 48 h
Activity calls are given as the source filed them. No stated cut-off is given here; in the data, active = GI50 up to about 1.1 µM and inactive = higher.
Choose one outcome from this list and give only that: label 1 for active, label 0 for inactive

The examples below pair each entry with its known result.
compound | qualitative.label
COc1c(CC(C)O)c2c3c(CC(C)O)c(OC)c(=O)c4c(O)cc5c(c6c(cc(O)c(c1=O)c62)OCO5)c43 (stereo unspecified) [CERCOSPORIN] | label 1
Oc1ccc(-c2n[nH]c(S)n2)cc1 | label 0
Nc1nc(SCc2ccccc2[N+](=O)[O-])c2[nH]cnc2n1 | label 0
O=C1C(Br)=C(Br)C(=O)c2ccc(=O)ccc21 | label 0
COc1nc(C(Cl)(Cl)Cl)c(Cl)c(OC)c1Cl [PENCLOMEDINE] | label 0

Please examine the following record next.
Qu. Call for entry CNC(C)Cc1ccccc1O (stereo unspecified) :
Ans. label 0
